Test: Clearance in Sprague-Dawley rat at 2.6 mg/kg, iv
Type: ADME, organism-based
Set-up: dose 2.6 mg/kg, route intravenous
Conditions: in vivo
reported.endpoint: clearance (mL/min/kg)

> print(dat)
                            compound.string  recorded.number
1  Cc1cc(Nc2ccc(S(F)(F)(F)(F)F)cc2)n2nc(C(C)(F)F)nc2n1                6

----------
Test: AUC (0 to infinity) in Swiss outbred mouse plasma at 0.4 mg/kg, po
Assay type: ADME, organism-based
Design: time infinity, dose 0.4 mg/kg, route oral
Listed below: AUC(0-inf) values for each entry.
reported.endpoint: AUC(0-inf) (µM·h)

> print(dat)
                            compound.string  recorded.number
1  Cc1cc(Nc2ccc(S(F)(F)(F)(F)F)cc2)n2nc(C(C)(F)F)nc2n1             0.45
2  Cc1cc(Nc2ccc(C(F)(F)F)cc2)n2nc(C(C)(F)F)nc2n1            0.667

----------
Assay: Cmax in human RBC engrafted NOD-SCID IL-2Rgamma-null mouse at 5.7 mg/kg, po
Assay type: ADME, organism-based
Parameters: dose 5.7 mg/kg, route oral
Conditions: in vivo
reported.endpoint: Cmax (µM)

> print(dat)
                            compound.string  reported.endpoint  recorded.number
1  Cc1cc(Nc2ccc(C(F)(F)F)cc2)n2nc(C(C)(F)F)nc2n1               Cmax              6.3

----------
Test: Lipophilicity, log D of the compound at pH 7.4
Format: physicochemical
Conditions: buffer
Criterion: logD strictly under 3. Met: Fulfilled. Not met: Not fulfilled.

> print(dat)
                            compound.string   answer.label
1  CCc1nc2nc(C)cc(Nc3ccc(S(F)(F)(F)(F)F)cc3)n2n1  Not fulfilled
2  CCOc1nc2nc(C)cc(Nc3ccc(C(F)(F)F)cc3)n2n1  Not fulfilled
3  CCC(F)(F)c1nc2nc(C)cc(Nc3ccc(S(F)(F)(F)(F)F)cc3)n2n1  Not fulfilled
4             Cc1cc(Nc2cccc(Cl)c2)n2ncnc2n1      Fulfilled
5  CSc1nc2nc(C)cc(Nc3ccc(S(F)(F)(F)(F)F)cc3)n2n1  Not fulfilled
6  CCOc1nc2nc(C)cc(Nc3ccc(S(F)(F)(F)(F)F)cc3)n2n1  Not fulfilled
7  Cc1cc(Nc2ccc(S(F)(F)(F)(F)F)cc2)n2nc(C(F)(F)F)nc2n1  Not fulfilled
8  Cc1cc(Nc2ccc(S(F)(F)(F)(F)F)cc2)n2nc(C3CC3)nc2n1  Not fulfilled
9  COCc1nc2nc(C)cc(Nc3ccc(S(F)(F)(F)(F)F)cc3)n2n1      Fulfilled

----------
Test: Cmax in Sprague-Dawley rat at 2 mg/kg, po
Assay type: ADME, organism-based
Parameters: dose 2 mg/kg, route oral
Settings: in vivo
reported.endpoint: Cmax (nM)

> print(dat)
                            compound.string  recorded.number
1  Cc1cc(Nc2ccc(C(F)(F)F)cc2)n2nc(C(C)(F)F)nc2n1              900

----------
Assay: in vivo
Conditions: NOD-SCID IL-2Rgamma-null, mouse, po, 7 mg/kg
reported.endpoint: Tmax (h)

> print(dat)
                            compound.string  reported.endpoint  recorded.number
1  Cc1cc(Nc2ccc(S(F)(F)(F)(F)F)cc2)n2nc(C(C)(F)F)nc2n1               Tmax                4

----------
Listed below: Tmax values for each entry.
Assay: in vivo
Conditions: Swiss outbred, mouse, po, 10 mg/kg
reported.endpoint: Tmax (h)

> print(dat)
                                   compound  reading.unit  recorded.number
1  Cc1cc(Nc2ccc(C(F)(F)F)cc2)n2nc(C(C)(F)F)nc2n1             h                4
2  Cc1cc(Nc2ccc(S(F)(F)(F)(F)F)cc2)n2nc(C(C)(F)F)nc2n1 [DSM-265]             h              1.5
3  CCC(F)(F)c1nc2nc(C)cc(Nc3ccc(C(F)(F)F)cc3)n2n1             h              0.5

----------
Tested on: Liver
Assay: Intrinsic clearance in mouse liver microsomes
Assay type: ADME, Microsome
reported.endpoint: Intrinsic clearance (µL/min/mg)

> print(dat)
                             compound.string    reported.endpoint  reading.unit  recorded.number
 1  CCOc1nc2nc(C)cc(Nc3ccc(C(F)(F)F)cc3)n2n1  Intrinsic clearance     µL/min/mg             14.4
 2  COCc1nc2nc(C)cc(Nc3ccc(C(F)(F)F)cc3)n2n1  Intrinsic clearance     µL/min/mg             13.3
 3  Cc1cc(Nc2ccc(C(F)(F)F)cc2)n2nc(CCO)nc2n1  Intrinsic clearance     µL/min/mg              6.9
 4  CSc1nc2nc(C)cc(Nc3ccc(S(F)(F)(F)(F)F)cc3)n2n1  Intrinsic clearance     µL/min/mg            107.5
 5      Cc1cc(Nc2ccc(Cl)cc2)n2nc(C(C)C)nc2n1  Intrinsic clearance     µL/min/mg            157.7
 6  Cc1cc(Nc2ccc(S(F)(F)(F)(F)F)cc2)n2nc(C3CC3)nc2n1  Intrinsic clearance     µL/min/mg             12.6
 7   CCc1nc2nc(C)cc(Nc3ccc(C(F)(F)F)cc3)n2n1  Intrinsic clearance     µL/min/mg             14.4
 8  CCOc1nc2nc(C)cc(Nc3ccc(S(F)(F)(F)(F)F)cc3)n2n1  Intrinsic clearance     µL/min/mg             11.3
 9  CCC(F)(F)c1nc2nc(C)cc(Nc3ccc(C(F)(F)F)cc3)n2n1  Intrinsic clearance     µL/min/mg              6.5
10  CCc1nc2nc(C)cc(Nc3ccc(S(F)(F)(F)(F)F)cc3)n2n1  Intrinsic clearance     µL/min/mg             16.7
11   Cc1cc(Nc2cccc(Cl)c2)n2nc(C(C)(F)F)nc2n1  Intrinsic clearance     µL/min/mg             72.2

----------
Test: Plasma protein binding in Sprague-Dawley rat at 2.1 to 46.7 mg/kg, po
Format: ADME, organism-based
Parameters: dose 2.1-46.7 mg/kg, route oral
Details: read-out: PPB (converted)
reported.endpoint: fraction unbound

> print(dat)
                            compound.string  recorded.number
1  Cc1cc(Nc2ccc(S(F)(F)(F)(F)F)cc2)n2nc(C(C)(F)F)nc2n1            0.027

----------
Test: Volume of distribution in Sprague-Dawley rat at 2.6 mg/kg, iv
Type: ADME, organism-based
Design: dose 2.6 mg/kg, route intravenous
Details: in vivo
reported.endpoint: Vd

> print(dat)
                            compound.string  reported.endpoint    result
1  Cc1cc(Nc2ccc(S(F)(F)(F)(F)F)cc2)n2nc(C(C)(F)F)nc2n1                 Vd  5.9 L/kg

----------
Assay: Oral bioavailability in Sprague-Dawley rat at 2.1 mg/kg
Assay type: ADME, organism-based
Details: in vivo
reported.endpoint: bioavailability (%)

> print(dat)
                            compound.string  reported.endpoint  reading.unit  recorded.number
1  Cc1cc(Nc2ccc(S(F)(F)(F)(F)F)cc2)n2nc(C(C)(F)F)nc2n1    bioavailability             %               66

----------
Test system: Plasmodium falciparum
Assay: Antimalarial activity against Plasmodium falciparum 3D7 by [3H]hypoxanthine incorporation assay in presence of human serum
Type: functional, organism-based
pEC50: −log10 of the molar value.
Listed below: pEC50 values for each entry.
reported.endpoint: pEC50

> print(dat)
                                    compound  result.comparator  recorded.number
 1        CCOc1nc2nc(C)cc(Nc3ccc(Cl)cc3)n2n1                  =             5.89
 2   CSc1nc2nc(C)cc(Nc3ccc(C(F)(F)F)cc3)n2n1                  =             8.08
 3  Cc1cc(Nc2ccc(C(F)(F)F)cc2)n2nc(S(C)(=O)=O)nc2n1                  =             6.77
 4        CCOc1nc2nc(C)cc(Nc3cccc(Cl)c3)n2n1                  =             5.36
 5         CSc1nc2nc(C)cc(Nc3cccc(Cl)c3)n2n1                  =             6.82
 6   CCc1nc2nc(C)cc(Nc3ccc(C(F)(F)F)cc3)n2n1                  =             7.24
 7       CNCCc1nc2nc(C)cc(Nc3ccc(Cl)cc3)n2n1                  <             5.60
 8  CCC(F)(F)c1nc2nc(C)cc(Nc3ccc(Cl)cc3)n2n1                  =             7.03
 9  Cc1cc(Nc2ccc(C(F)(F)F)cc2)n2nc(C(F)(F)F)nc2n1                  =             7.14
10         CSc1nc2nc(C)cc(Nc3ccc(Cl)cc3)n2n1                  =             6.82
11   Cc1cc(Nc2cccc(Cl)c2)n2nc(C(C)(F)F)nc2n1                  =             6.89
12         COc1nc2nc(C)cc(Nc3ccc(Cl)cc3)n2n1                  =             6.23
13  CCOc1nc2nc(C)cc(Nc3ccc(S(F)(F)(F)(F)F)cc3)n2n1                  =             7.00
14         CCc1nc2nc(C)cc(Nc3cccc(Cl)c3)n2n1                  =             5.48
15  Cc1cc(Nc2ccc(S(F)(F)(F)(F)F)cc2)n2nc(C3CC3)nc2n1                  =             6.30
16   Cc1cc(Nc2ccc(Cl)cc2)n2nc(C(C)(F)F)nc2n1                  =             7.30
17  Cc1cc(Nc2ccc(S(F)(F)(F)(F)F)cc2)n2nc(S(C)(=O)=O)nc2n1                  =             5.70
18         CCc1nc2nc(C)cc(Nc3ccc(Cl)cc3)n2n1                  =             6.10
19         Cc1cc(Nc2cccc(Cl)c2)n2nc(CO)nc2n1                  <             5.00
20  Cc1cc(Nc2ccc(Cl)cc2)n2nc(S(C)(=O)=O)nc2n1                  =             5.85
21  COCCc1nc2nc(C)cc(Nc3ccc(C(F)(F)F)cc3)n2n1                  =             5.38
22      Cc1cc(Nc2ccc(Cl)cc2)n2nc(C3CC3)nc2n1                  =             5.17
23  Cc1cc(Nc2ccc(S(F)(F)(F)(F)F)cc2)n2nc(C(C)C)nc2n1                  =             6.38
24      Cc1cc(Nc2ccc(Cl)cc2)n2nc(C(C)C)nc2n1                  =             6.07
25  CCC(C)c1nc2nc(C)cc(Nc3ccc(S(F)(F)(F)(F)F)cc3)n2n1 (centres undefined)                  =             6.29
26  Cc1cc(Nc2ccc(S(F)(F)(F)(F)F)cc2)n2nc(C(F)(F)F)nc2n1                  =             6.85
27  Cc1cc(Nc2ccc(C(F)(F)F)cc2)n2nc(C(C)(C)C)nc2n1                  =             6.54
28  Cc1cc(Nc2ccc(C(F)(F)F)cc2)n2nc(CCO)nc2n1                  =             6.32
29       CNCCc1nc2nc(C)cc(Nc3cccc(Cl)c3)n2n1                  <             5.60
30  CCC(C)c1nc2nc(C)cc(Nc3ccc(C(F)(F)F)cc3)n2n1 (centres undefined)                  =             6.57
31         COc1nc2nc(C)cc(Nc3cccc(Cl)c3)n2n1                  =             6.01
32  Cc1cc(Nc2ccc(C(F)(F)F)cc2)n2nc(C(C)C)nc2n1                  =             7.01
33  CCOc1nc2nc(C)cc(Nc3ccc(C(F)(F)F)cc3)n2n1                  =             7.24
34  Cc1cc(Nc2ccc(C(F)(F)F)cc2)n2nc(C(C)(F)F)nc2n1                  =             8.00
